Biological target: Human neutrophil elastase (Homo sapiens, UniProt P08246)
Construct: purchased Elastin Products Company, Inc. (EPC, Owensville, USA) SE563
Sequence (P08246 30-267): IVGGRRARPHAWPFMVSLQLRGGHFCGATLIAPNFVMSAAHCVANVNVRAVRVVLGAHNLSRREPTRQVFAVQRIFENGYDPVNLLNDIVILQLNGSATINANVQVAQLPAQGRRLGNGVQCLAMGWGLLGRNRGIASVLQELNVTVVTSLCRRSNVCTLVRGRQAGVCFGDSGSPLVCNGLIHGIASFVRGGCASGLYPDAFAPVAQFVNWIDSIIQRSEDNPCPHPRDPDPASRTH
Assay: HNE inhibitory activity in vitro (fluorescence-quenched substrate)
Assay type: biochemical
Conditions: Table 11; read-out: human neutrophile elastase IC 50
Friendly reminder: IC50 below 5 nM is Met, at or above is Not met.

Answered examples (5):
{"Compound": "CCC(C)C1NC(=O)C(Cc2ccc(OC(=O)OCCOC)cc2)N(C)C(=O)C(C(C)CC)N2CCCC(NC(=O)C(CC(C)C)NC(=O)C(NC(=O)C(CCC(N)=O)NC(=O)C(C)C)C(C)OC1=O)C2=O (stereo not drawn)", "Assigned class": "Not met"}
{"Compound": "CCC(C)C1NC(=O)C(Cc2ccc(O)cc2)N(C)C(=O)C(C(C)CC)N2C(=O)C(CCC2O)NC(=O)C(CC(C)C)NC(=O)C(NC(=O)C(CCC#N)NC(=O)C(C)C)C(C)OC1=O (stereo not drawn)", "Assigned class": "Not met"}
{"Compound": "C#CCOc1ccc(CC2C(=O)NC(C(C)CC)C(=O)OC(C)C(NC(=O)C(CCC(N)=O)NC(=O)C(C)C)C(=O)NC(CC(C)C)C(=O)NC3CCC(OCCC)N(C3=O)C(C(C)CC)C(=O)N2C)cc1 (stereo not drawn)", "Assigned class": "Met"}
{"Compound": "CCCOC1CCC2NC(=O)C(CC(C)C)NC(=O)C(NC(=O)C(CCC#N)NC(=O)C(C)C)C(C)OC(=O)C(C(C)CC)NC(=O)C(Cc3ccc(O)cc3)N(C)C(=O)C(C(C)CC)N1C2=O (stereo not drawn)", "Assigned class": "Met"}
{"Compound": "CCC(C)C1NC(=O)C(Cc2ccc(O)cc2)N(C)C(=O)C(C(C)CC)N2CCCC(NC(=O)C(CC(C)C)NC(=O)C(NC(=O)C(CCC(N)=O)NC(=O)C(C)C)C(C)OC1=O)C2=O (stereo not drawn)", "Assigned class": "Not met"}

Enquiry: Criterion: IC50 strictly below 5 nM. Is it met by CCC(C)C1NC(=O)C(Cc2ccc(OCc3cc(C)n(C)n3)cc2)N(C)C(=O)C(C(C)CC)N2C(=O)C(CCC2O)NC(=O)C(CC(C)C)NC(=O)C(NC(=O)C(CCC(N)=O)NC(=O)C(C)C)C(C)OC1=O (stereo not drawn) ?
Return: Met

Enquiry: Determine whether this compound shows IC50 lower than 5 nM (ties excluded): CCCOC1CCC2NC(=O)C(CC(C)C)NC(=O)C(NC(=O)C(CCC(N)=O)NC(=O)C(C)C)C(C)OC(=O)C(C(C)CC)NC(=O)C(Cc3ccc(OCc4ccccc4)cc3)N(C)C(=O)C(C(C)CC)N1C2=O (stereo not drawn)
Return: Met

Enquiry: Decide: IC50 of CCCOC1CCC2NC(=O)C(CC(C)C)NC(=O)C(NC(=O)C(CCC(N)=O)NC(=O)C(C)C)C(C)OC(=O)C(C(C)CC)NC(=O)C(Cc3ccc(OCC=C(C)C)cc3)N(C)C(=O)C(C(C)CC)N1C2=O (stereo not drawn) strictly below 5 nM?
Return: Met

The reported measurements were obtained from patent US9127044B2.
